DC50: recorded values
Target: androgen receptor (AR) splicing variant AR-v7 (Homo sapiens, UniProt P10275)
Construct: The degradation activity of compounds on AR-v7 in 22RV1 cells; host or cells: 22RV1 cells
Assay: Degradation activity on androgen receptor splicing variant AR-v7 in 22RV1 cells (ELISA)
Assay type: cell-based
Conditions: AR-v7 degradation in 22RV1 cells, 48 h, class symbols

Solved cases (4 shown):
• Cc1nc(-c2cncc(Oc3ccc(C(C)(C)c4ccc(O[C@H]5C[C@@H](Nc6ccc7c(c6)C(=O)N(C6CCC(=O)NC6=O)C7=O)C5)cc4)cc3)n2)no1 (stereo partly drawn) = 11 to 100 nM
• CC(=O)c1nccc(COc2ccc(C(C)(C)c3ccc(N4CCC5(CC4)CN(c4ccc6c(c4)C(=O)N(C4CCC(=O)NC4=O)C6=O)C5)cc3)cc2)n1 (stereo not drawn) = 1000 to 5000 nM
• CC(=O)c1ccc(Oc2ccc(C(C)(C)c3ccc(O[C@H]4C[C@@H](Nc5ccc6c(c5)C(=O)N(C5CCC(=O)NC5=O)C6=O)C4)cc3)cc2)cn1 (stereo partly drawn) = 11 to 100 nM
• CC(c1nccc(COc2ccc(C(C)(C)c3ccc(O[C@H]4C[C@H](Nc5ccc6c(c5)C(=O)N(C5CCC(=O)NC5=O)C6=O)C4)cc3)cc2)n1)N1CCC1 (stereo partly drawn) = < 10 nM

For the compound shown here, CNc1nccc(COc2ccc(C(C)(C)c3ccc(OCCCNc4ccc5c(c4)C(=O)N(C4CCC(=O)NC4=O)C5=O)cc3)cc2)n1 (stereo not drawn) , give the reported DC50.
11 to 100 nM

Same lookup for CC(C)(c1ccc(OCCCNc2ccc3c(c2)C(=O)N(C2CCC(=O)NC2=O)C3=O)cc1)c1ccc(OCc2ccnc(N3CCOCC3)n2)cc1 (stereo not drawn) , please.
11 to 100 nM

====

DC50: recorded values
Target: androgen receptor (AR) splicing variant AR-v7 (Homo sapiens)
Construct: The degradation activity of compounds on AR-v7 in 22RV1 cells; host or cells: 22RV1 cells
Sequence (P10275 1-644 isoform P10275-3): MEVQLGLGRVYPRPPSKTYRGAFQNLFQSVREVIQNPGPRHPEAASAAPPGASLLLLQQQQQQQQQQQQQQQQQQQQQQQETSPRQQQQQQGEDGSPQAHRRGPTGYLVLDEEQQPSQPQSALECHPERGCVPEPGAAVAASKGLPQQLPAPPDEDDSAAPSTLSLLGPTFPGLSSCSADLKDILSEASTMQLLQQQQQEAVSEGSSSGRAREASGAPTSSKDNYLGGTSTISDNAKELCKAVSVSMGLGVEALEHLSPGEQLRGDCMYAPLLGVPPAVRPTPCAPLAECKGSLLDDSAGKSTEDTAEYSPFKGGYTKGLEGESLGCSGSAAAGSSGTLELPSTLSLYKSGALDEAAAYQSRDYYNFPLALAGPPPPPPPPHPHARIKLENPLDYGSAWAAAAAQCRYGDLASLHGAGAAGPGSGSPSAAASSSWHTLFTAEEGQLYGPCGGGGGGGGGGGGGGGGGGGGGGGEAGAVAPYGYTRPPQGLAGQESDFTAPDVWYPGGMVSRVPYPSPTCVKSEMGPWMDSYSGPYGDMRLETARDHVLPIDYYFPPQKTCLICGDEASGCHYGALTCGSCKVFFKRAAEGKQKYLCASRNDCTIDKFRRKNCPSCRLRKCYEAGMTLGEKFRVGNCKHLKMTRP
Assay: Degradation activity on androgen receptor splicing variant AR-v7 in 22RV1 cells (ELISA)
Assay type: cell-based
Conditions: AR-v7 degradation in 22RV1 cells, 48 h, class symbols

Solved cases (8 shown):
• CC(O)c1nccc(COc2ccc(C(C)(C)c3ccc(O[C@H]4CC[C@H](Nc5ccc6c(c5)C(=O)N(C5CCC(=O)NC5=O)C6=O)CC4)cc3)cc2)n1 (stereo partly shown) = 1000 to 5000 nM
• COc1cnc(Oc2ccc(C(C)(C)c3ccc(O[C@H]4C[C@H](Nc5ccc6c(c5)C(=O)N(C5CCC(=O)NC5=O)C6=O)C4)cc3)cc2)cn1 (stereo partly shown) = 11 to 100 nM
• CCC(CC)(c1ccc(Oc2ccc(C(C)O)nn2)cc1)c1ccc(O[C@H]2C[C@H](Nc3ccc4c(c3)C(=O)N(C3CCC(=O)NC3=O)C4=O)C2)cc1 (stereo partly shown) = < 10 nM
• CN(C)[C@H]1CCN(c2nccc(COc3ccc(C(C)(C)c4ccc(O[C@H]5C[C@@H](Nc6ccc7c(c6)C(=O)N(C6CCC(=O)NC6=O)C7=O)C5)cc4)cc3)n2)C1 (stereo partly shown) = 11 to 100 nM
• CC(=O)c1nccc(COc2ccc(C(C)(C)c3ccc(OC[C@H]4CCN4c4ccc5c(c4)C(=O)N(C4CCC(=O)NC4=O)C5=O)cc3)cc2)n1 (stereo partly shown) = 1000 to 5000 nM
• Cc1noc(-c2ncc(Oc3ccc(C(C)(C)c4ccc(O[C@H]5C[C@H](Nc6ccc7c(c6)C(=O)N(C6CCC(=O)NC6=O)C7=O)C5)cc4)cc3)cn2)n1 (stereo partly shown) = < 10 nM
• Cc1noc(-c2nccc(COc3ccc(C(C)(C)c4ccc(O[C@H]5C[C@H](Nc6ccc7c(c6)C(=O)N(C6CCC(=O)NC6=O)C7=O)C5)cc4)cc3)n2)n1 (stereo partly shown) = 11 to 100 nM
• CSc1nccc(COc2ccc(C(C)(C)c3ccc(OCCCNc4ccc5c(c4)C(=O)N(C4CCC(=O)NC4=O)C5=O)cc3)cc2)n1 (stereo not shown) = 11 to 100 nM

For the compound shown here, Cc1nc(-c2cc(Oc3ccc(C(C)(C)c4ccc(O[C@H]5C[C@H](Nc6ccc7c(c6)C(=O)N(C6CCC(=O)NC6=O)C7=O)C5)cc4)cc3)ccn2)no1 (stereo partly shown) , give the reported DC50.
11 to 100 nM

Same lookup for CC(=O)c1nccc(COc2ccc(C(C)(C)c3ccc(OC4CC5(C4)CN(c4ccc6c(c4)C(=O)N(C4CCC(=O)NC4=O)C6=O)C5)cc3)cc2)n1 (stereo not shown) , please.
11 to 100 nM

Same lookup for CN1CCN(c2nccc(COc3ccc(C(C)(C)c4ccc(OCCCNc5cccc6c5C(=O)N(C5CCC(=O)NC5=O)C6=O)cc4)cc3)n2)CC1 (stereo not shown) , please.
101 to 1000 nM

Same lookup for CC(C)(c1ccc(Oc2cc(-n3nccn3)ccn2)cc1)c1ccc(O[C@H]2C[C@H](Nc3ccc4c(c3)C(=O)N(C3CCC(=O)NC3=O)C4=O)C2)cc1 (stereo partly shown) [Example 168] , please.
11 to 100 nM

====

Target: androgen receptor (AR) splicing variant AR-v7 (Homo sapiens)
Construct: The degradation activity of compounds on AR-v7 in 22RV1 cells; host or cells: 22RV1 cells
Assay: Degradation activity on androgen receptor splicing variant AR-v7 in 22RV1 cells (ELISA)
Format: cell-based
Conditions: AR-v7 degradation in 22RV1 cells, 48 h, class symbols
DC50: recorded values

Solved cases (3 shown):
- CC(C)(c1ccc(Oc2cnc(C(O)C3CCC3)nc2)cc1)c1ccc(O[C@H]2C[C@H](Nc3ccc4c(c3)C(=O)N(C3CCC(=O)NC3=O)C4=O)C2)cc1 (stereo partly drawn): < 10 nM
- CCC(CC)(c1ccc(OCCCNc2ccc3c(c2)C(=O)N(C2CCC(=O)NC2=O)C3=O)cc1)c1ccc(OCc2ccnc(C(C)=O)n2)cc1 (stereo not drawn) [Example 350]: 11 to 100 nM
- CC(C)(c1ccc(OCc2cnc(N3CC4(COC4)C3)nc2)cc1)c1ccc(O[C@H]2C[C@@H](Nc3ccc4c(c3)C(=O)N(C3CCC(=O)NC3=O)C4=O)C2)cc1 (stereo partly drawn): 11 to 100 nM

For the molecule shown here, CC(C)(c1ccc(OCc2ccnc(-c3cncs3)n2)cc1)c1ccc(O[C@H]2C[C@H](Nc3ccc4c(c3)C(=O)N(C3CCC(=O)NC3=O)C4=O)C2)cc1 (stereo partly drawn) , give the reported DC50.
11 to 100 nM

Same lookup for Cn1cc(-c2cccc(COc3ccc(C(C)(C)c4ccc(O[C@H]5C[C@H](Nc6ccc7c(c6)C(=O)N(C6CCC(=O)NC6=O)C7=O)C5)cc4)cc3)n2)cn1 (stereo partly drawn) , please.
< 10 nM

Same lookup for CC(C)(c1ccc(OCCCCCOc2ccc3c(c2)C(=O)N(C2CCC(=O)NC2=O)C3=O)cc1)c1ccc(OCc2ccnc(NS(C)(=O)=O)n2)cc1 (stereo not drawn) , please.
1000 to 5000 nM

====

Experiment: Pharmacokinetics in mice (plasma exposure after oral administration)
Assay type: in vivo
Details: mouse, ICR mice, oral (i.g.) 3 mg/kg, read-out: After oral administration of 3 mg/kg, mouse plasma exposure AUCinf
AUC(0-inf): recorded values

Solved cases (2 shown):
* CC(C)(c1ccc(O[C@H]2C[C@H](Nc3ccc4c(c3)C(=O)N(C3CCC(=O)NC3=O)C4=O)C2)cc1)c1ccc(N2CCc3nc(N4CC5(COC5)C4)ncc3C2)cc1 (stereo partly drawn) | 1 to 5 µg·h/mL
* Cc1nnc(-c2ccc(Oc3ccc(C(C)(C)c4ccc(O[C@H]5C[C@H](Nc6ccc7c(c6)C(=O)N(C6CCC(=O)NC6=O)C7=O)C5)cc4)cc3)cn2)o1 (stereo partly drawn) | 5 to 30 µg·h/mL

Now consider the entry below.
For the molecule shown here, CC(C)(c1ccc(O[C@H]2C[C@H](Nc3ccc4c(c3)C(=O)N(C3CCC(=O)NC3=O)C4=O)C2)cc1)c1ccc(N2CCc3cnc(N4CC5(COC5)C4)nc3C2)cc1 (stereo partly drawn) , give the reported AUC(0-inf).
5 to 30 µg·h/mL
